- Tested on: LXRb:RXRa (NR concentration 270 nM, RXRa partner concentration 90 nM)
- PROTOCOL SUMMARY: PBM binding z-score (relative to random genomic background probes); higher = stronger binding; sequences stand for … in GC…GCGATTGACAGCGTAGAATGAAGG
Label rule met for high-side PBM binding z-score (at or above 2) and rule not met for low-side PBM binding z-score (below it).

CONSTRUCT SEQUENCE | SYSTEM TESTED | CLASS LABEL
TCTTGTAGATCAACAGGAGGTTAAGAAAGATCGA | LXRb:RXRa (NR concentration 270 nM, RXRa partner concentration 90 nM) | rule not met
GATACAGGGTCAAGGCCAGGGTACGCGTATTGAT | LXRb:RXRa (NR concentration 270 nM, RXRa partner concentration 90 nM) | rule met
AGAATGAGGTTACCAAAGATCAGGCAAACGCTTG | LXRb:RXRa (NR concentration 270 nM, RXRa partner concentration 90 nM) | rule met
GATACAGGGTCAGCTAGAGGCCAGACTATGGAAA | LXRb:RXRa (NR concentration 270 nM, RXRa partner concentration 90 nM) | rule met
ATCGACAGGTCGTGAGGTGAGTATACAGAAAGGC | LXRb:RXRa (NR concentration 270 nM, RXRa partner concentration 90 nM) | rule not met
CCTTCTAGGTCAATGGTCAGCTAAAGCAGCTCGC | LXRb:RXRa (NR concentration 270 nM, RXRa partner concentration 90 nM) | rule not met
